- System: SK-MEL-5 melanoma
- ASSAY_TEXT: NCI tumour cell line growth inhibition, 48 h
Catalogue of TGI values
REPORTED_METRIC: TGI

1. CC1(C)CCCC2(C)C3=C(CCC12)C(=O)OC3 (centres undefined) :: > 100 µM
2. O=C1CCN=C(NC(=O)C(F)(F)F)N1CCc1c[nH]c2ccccc12 :: > 100 µM
3. Cc1ccc(N/N=C/C2=CC(C)(C)C(C#N)(C#N)C(O)=C2C#N)cc1 :: > 100 µM
4. COc1ccc(-c2c(-c3cc4c(c(OC)c3OC)OCO4)noc2N)cc1 :: > 69.4 µM

###

- Test system: SF-539 CNS
- ASSAY_TEXT: NCI tumour cell line growth inhibition, 48 h
Catalogue of TGI values
REPORTED_METRIC: TGI

1) CC(=O)Oc1c(C)cc2c(c1C)C(C)(C)CN2C(=O)C(C)(C)C :: > 100 µM
2) O=C(O)COc1cc(-c2ccccc2F)nc2cc3c(cc12)OCO3 :: > 100 µM
3) CC1(C)CC(=O)c2c([nH]c(=S)c(C#N)c2-c2ccc(Br)cc2)C1 :: > 100 µM
4) O=C1C[C@@H]2[C@@H](C=CC23CC3)N1O :: > 100 µM

###

- Test system: SF-295 CNS
- ASSAY_TEXT: NCI tumour cell line growth inhibition, 48 h
Catalogue of TGI values
REPORTED_METRIC: TGI

1. Nc1nc(N)c2c(CCc3ccc(C(=O)N[C@@H](CCC(=O)O)C(=O)O)cc3)ccnc2n1 :: > 100 µM
2. CCOC(=O)CC[C@H](NC(=O)c1ccc(CNc2nc3cc(C(F)(F)F)ccc3nc2C(=O)OCC)cc1)C(=O)OCC :: 24.7 µM
3. O=S(Cc1cnc2ccccc2c1)c1nc2ccccc2nc1-c1cccs1 (configuration not stated) :: 61 µM
4. O=C1CSC(c2c[nH]c3ccccc23)N1c1cccc([N+](=O)[O-])c1 (configuration not stated) :: > 100 µM
5. O=C1OCCC12CN(Cc1ccccc1)N=N2 (configuration not stated) :: > 100 µM
6. CC(C)COC(=O)N1N=NC2C3CC(=O)C(O3)C21 (configuration not stated) :: > 100 µM
7. CCCCCCCCCCCCCCCCCCNc1ccn(C2OC(COP(=O)(O)OCC(COP(=O)(O)OCC3OC(n4cc(C)c(=O)[nH]c4=O)CC3N=[N+]=[N-])OCCCCCCCCCCCCCCCCCC)C(O)C2O)c(=O)n1 (configuration not stated) :: > 100 µM
8. COc1cc2c(NCCN(C)C)nc3c4cc5c(cc4ccc3c2cc1OC)OCO5 :: 5.7 µM
9. Clc1ccc(C2ON=C(c3ccccc3)N2C23CC4CC(CC(C4)C2)C3)cc1Cl (configuration not stated) :: > 10 µM
10. COc1ccc(/C=C(/C(=O)N2CCN(c3ccc(C)cc3)CC2)c2cc(OC)c(OC)c(OC)c2)cc1N :: > 100 µM
11. CCOc1cc(/C=N\O)cc(/C=N/O)c1O :: > 100 µM
12. COc1ccc(-c2c(-c3cc4c(c(OC)c3OC)OCO4)noc2N)cc1 :: > 100 µM

###

- Tested on: CCRF-CEM leukemia
- ASSAY_TEXT: NCI tumour cell line growth inhibition, 48 h
Catalogue of TGI values
REPORTED_METRIC: TGI

1. CC(C)(C)c1cc(O)c2c(c1O)C(=O)CCC2 :: > 100 µM
2. CCOC(=O)C1Nc2ccc([N+](=O)[O-])cc2[C@H]2OCC[C@@H]12 (stereo not given in full) :: > 100 µM
3. Cc1ccc2oc(=O)cc(CC(=O)O)c2c1 :: > 100 µM
4. CCCCCCCCCCCCCCCCCc1cc(Cl)nc(Cl)n1 :: > 100 µM
5. Oc1ccccc1/C=N/Nc1nc2ccccc2s1 :: > 100 µM
6. CC1OC1P(=O)(O)O (stereo not given) :: > 100 µM
7. c1cc2c(cc1NC1=NCCO1)CCCC2 :: > 26.7 µM
8. COc1ccc(C(=O)NNC(=O)c2nsc3ccccc23)cc1 :: > 100 µM
9. CCC(C#N)NCc1ccc(CNC(C#N)CC)cc1 (stereo not given) :: > 100 µM
10. Clc1cc2nc[nH]c2cc1Cl :: > 100 µM
11. COc1ccc2c(c1)[n+]([O-])c(/C(C)=N/NC(N)=S)c(C)[n+]2[O-] :: > 100 µM
12. CCCCCCCCCCCCCCCCOP(=O)(O)OP(=O)(O)OCC1OC(n2cnc3c(N)ncnc32)C(O)C1O (stereo not given) :: 86.6 µM
13. Cn1cc(S(=O)(=O)NC(=O)Nc2ccc(Cl)cc2)c(=O)c2ccc(Cl)cc21 :: > 100 µM
14. C[C@]12CC[C@H](OC(=O)Cc3ccc(N(CCCl)CCCl)cc3)CC1CC[C@@H]1C2CC[C@]2(C)NC(=O)CCC12 (stereo not given in full) :: 18 µM
15. COc1ccc(C(=O)OC2C(OC3C(O)COC(O[C@H]4C[C@H]5[C@@H]6CC=C7C[C@@H](O)CC[C@]7(C)[C@H]6CC[C@]5(C)[C@H]4[C@H](C)C(=O)CCC(C)C)C3OC(=O)C(C)C)OCC(O)C2O)cc1 (stereo not given in full) :: 0.0317 µM

###

- Test system: MOLT-4 leukemia
- ASSAY_TEXT: NCI tumour cell line growth inhibition, 48 h
Catalogue of log10 of TGI values
REPORTED_METRIC: log10 of TGI (log10 of the value in µM)

1. O=S1(=O)OCc2ccccc21 :: 1.90
2. S=P(C1CCCCC1)(C1CCCCC1)C(c1cccnc1)N1CCCC1 (configuration not stated) :: 1.63
3. CCCCCCCCCCCCCCCCSS(C)(=O)=O :: 0.83
4. CCCCN1C(=O)C2c3[nH]c4ccccc4c3C3CCCCC3C2C1=O (mixture of isomers) :: 1.29
5. C[C@]12CCC(=O)C=C1CC[C@@H]1[C@@H]2CC[C@]2(C)C(=O)/C(=C/c3ccncc3)C[C@@H]12 :: 1.81
6. COC(=O)C12OCC34C(CC5C(C)C6=CC(=O)OC6=CC5(C)C3C(O)C1O)OC(=O)C(OC(C)=O)C24 (configuration not stated) :: 1.66
7. C=C(C)[C@@H]1CC[C@]2(C(=O)N3CCN(C)CC3)CC[C@]3(C)[C@H](CC[C@@H]4[C@@]5(C)C/C(=C/c6ccncc6)[C@H](O)C(C)(C)[C@@H]5CC[C@]43C)[C@@H]12 :: 1.04
8. NC(N)=NS(=O)(=O)c1ccc(NC(=O)c2cccn3c(=O)c4ccccc4nc23)cc1 :: 1.93
9. C=C(c1ccc(OC)c(/C=C/C(=O)c2cc(OC)c(OC)c(OC)c2)c1)c1cc(OC)c(OC)c(OC)c1 :: 1.43
10. Cc1cc(NCCCNc2ccnc3cc(Cl)ccc23)nc(Nc2ccc(C(=O)N3CCCCC3)cc2)n1 :: 1.13
11. N#Cc1c(N)n(C2OC(CO)C(O)C2O)c2ncnc(N)c12 (configuration not stated) :: -0.79
12. CN(C)CCn1c2c(c3ccccc31)CCc1ccccc1-2 :: 1.46
13. CC(/C=C/C=C\C=C\C=C(/C)C(=O)NC(C)CO)=C\C(C)C(O)/C(C)=C/C(C)CCc1ccccc1 (configuration not stated) :: 1.75

###

- Test system: SNB-19 CNS
- ASSAY_TEXT: NCI tumour cell line growth inhibition, 48 h
REPORTED_METRIC: TGI

1. CCOc1ccc(NC(=O)/C(Cc2nc3ccccc3[nH]c2=O)=N\O)cc1 :: > 100 µM
2. O=C1C2c3[nH]c4ccccc4c3C3CCC(c4ccccc4)CC3C2C(=O)N1c1ccccc1 (stereo unspecified) :: > 100 µM
3. c1cc2c(cc1NC1=NCCO1)CCCC2 :: > 84.2 µM
4. CN(C)c1ccc(/C=N/NC(=O)CSc2nc3sc4c(c3c(=O)n2-c2ccccc2)CCCCC4)cc1 :: 80.9 µM
5. COC(=O)CCC(=O)Nc1cccc(C(F)(F)F)c1 :: > 100 µM
6. CC(=O)OC(=C(C#N)C#N)c1nccnc1C(=O)O :: > 100 µM
7. Nc1nc(N)c2c(CCc3ccc(C(=O)N[C@@H](CCC(=O)O)C(=O)O)cc3)ccnc2n1 :: > 100 µM
8. COc1ccc2c(c1)O/C(=C\c1ccc([N+](=O)[O-])o1)C2=O :: > 100 µM
9. NNC(=O)C(O)C(O)C(O)CO (stereo unspecified) :: > 100 µM
10. CCC1CCC2C3CC=C4CC(OC(C)=O)C(N)CC4(C)C3CCC12C (stereo unspecified) :: 6.49 µM
11. O=S1(=O)OCc2ccccc21 :: > 100 µM

###

- Tested on: RXF 393 renal
- ASSAY_TEXT: NCI tumour cell line growth inhibition, 48 h
Catalogue of TGI values
REPORTED_METRIC: TGI

1) COC(=O)CCC(=O)Nc1cccc(C(F)(F)F)c1 :: > 100 µM
2) CO[C@H](C(=O)O[C@H]1C(=O)N2CCC3CCC1C32C)c1ccccc1 (stereo partly specified) :: > 100 µM
3) CN1CCN2c3ccccc3CC(C#N)(C#N)C2C1 (stereo unspecified) :: > 100 µM
4) CCOC(=O)c1ccc(OCc2nc3cc(C(F)(F)F)ccc3nc2-c2ccccc2)cc1 :: > 100 µM
5) COc1ccc2c(c1)[n+]([O-])c(/C(C)=N/NC(N)=S)c(C)[n+]2[O-] :: > 100 µM
6) O=C1CC2(CCN(CC3COc4ccccc4O3)CC2)C(=O)N1N1CCCCCC1 (stereo unspecified) :: > 100 µM
